# measurement description: Cytotoxicity against African green monkey Vero cells assessed as growth inhibition after 48 hrs
# Assay type: cell-based
# recorded conditions: chlorocebus sabaeus, read-out: TC50
experimental readout: CC50 at 48 h (µM)
Answers are plain numbers, in µM.

- structure smiles string: "C[C@H](CC[C@H](O[C@@H]1O[C@H](CO)[C@@H](O)[C@H](O)[C@H]1O)C(C)(C)O)[C@H]1CC[C@@]2(C(=O)O)C3=C(CC[C@]12C)[C@@]1(C)CC[C@@H](O)C(C)(C)[C@@H]1CC3"
  CC50 at 48 h [µM]: 57.7

Kindly consider the entry below.
Exercise: Consider the compound shown here: Cc1cc(CCCOc2c(C)cc(-c3noc(C(F)(F)F)n3)cc2C)on1 What is its recorded CC50 at 48 h?
Solution: 15.4

---

# measurement description: Cytotoxicity against MDCK cells assessed as growth inhibition after 48 hrs
# Format: cell-based, Canis lupus familiaris
# recorded conditions: dog, read-out: TC50
experimental readout: CC50 at 48 h (µM)
Numbers only, in µM.

- compound: "NC(=O)c1ncn([C@@H]2O[C@H](CO)[C@@H](O)[C@H]2O)n1 [RIBAVIRIN]"
  unit of measure: "µM"
  CC50 at 48 h: 1160
- compound: "C[C@H](CC[C@H](O)C(C)(C)O)[C@H]1CC[C@@]2(C(=O)O)C3=C(CC[C@]12C)[C@@]1(C)CC[C@@H](O)C(C)(C)[C@@H]1CC3"
  unit of measure: "µM"
  CC50 at 48 h: 16

I have 4 compounds here; please give me CC50 at 48 h for each one.
1. CC(=O)OC[C@H]1O[C@@H](O[C@@H]2CCC3=C(CC[C@@H]4[C@H](CC[C@]5(C)[C@@H]([C@H](C)CC[C@H](O)C(C)(C)O)CC[C@@]45C(=O)O)C3)C2(C)C)[C@H](O)[C@@H](O)[C@@H]1O
2. C[C@H](CCC(=O)C(C)(C)O)[C@H]1CC[C@@]2(C(=O)O)[C@@H]3CCC4=C(CC[C@@H](O)C4(C)C)C[C@H]3CC[C@]12C
3. C[C@H](CC[C@H](O)C(C)(C)O)[C@H]1CC[C@@]2(C(=O)O)[C@@H]3CCC4=C(CC[C@@H](O)C4(C)C)C[C@H]3CC[C@]12C
4. CC(=O)OC[C@H]1O[C@@H](O[C@@H]2CC[C@]3(C)C4=C(CC[C@H]3C2(C)C)[C@]2(C(=O)O)CC[C@H]([C@H](C)CC[C@H](O)C(C)(C)O)[C@@]2(C)CC4)[C@H](O)[C@@H](O)[C@@H]1O

Solution:
1: 48.1; 2: 6.4; 3: 19.3; 4: 19.3

---

# measurement description: Selectivity index, ratio of TC50 for African green monkey Vero cells to IC50 for Coxsackievirus B3 infected in African green monkey Vero cells
# Format: toxicity
# recorded conditions: read-out: Selectivity Index
I'd be grateful if you could share measured selectivity ratio for these entries.

Example entries begin here.
- structure smiles string: "C[C@H](CCC(=O)C(C)(C)O)[C@H]1CC[C@@]2(C(=O)O)[C@@H]3CCC4=C(CC[C@@H](O[C@@H]5O[C@H](CO)[C@@H](O)[C@H](O)[C@H]5O)C4(C)C)C[C@H]3CC[C@]12C"
  reported value: 2.1
- structure smiles string: "C[C@H](CC[C@H](O)C(C)(C)O)[C@H]1CC[C@@]2(C(=O)O)C3=C(CC[C@]12C)[C@@]1(C)CC[C@@H](O)C(C)(C)[C@@H]1CC3"
  reported value: 4
- structure smiles string: "NC(=O)c1ncn([C@@H]2O[C@H](CO)[C@@H](O)[C@H]2O)n1"
  reported value: 6.8
- structure smiles string: "Cc1cc(CCCOc2c(C)cc(-c3noc(C(F)(F)F)n3)cc2C)on1"
  reported value: 15400
- structure smiles string: "C[C@H](CCC(=O)C(C)(C)O)[C@H]1CC[C@@]2(C(=O)O)[C@@H]3CCC4=C(CC[C@@H](O)C4(C)C)C[C@H]3CC[C@]12C"
  reported value: 7.6

List selectivity ratio for every entry below, keeping the order given.
1. CC(=O)OC[C@H]1O[C@@H](O[C@@H]2CC[C@]3(C)C4=C(CC[C@H]3C2(C)C)[C@]2(C(=O)O)CC[C@H]([C@H](C)CC[C@H](O)C(C)(C)O)[C@@]2(C)CC4)[C@H](O)[C@@H](O)[C@@H]1O
2. C[C@H](CC[C@H](O)C(C)(C)O)[C@H]1CC[C@@]2(C(=O)O)[C@@H]3CCC4=C(CC[C@@H](O)C4(C)C)C[C@H]3CC[C@]12C

Solution:
1. 1.7
2. 10
